measured_on: T1, recombinant human 4R0N tau (human, UniProt P10636 2-758)
T1 construct: also called recombinant 4R0N human tau; P10636-6
experiment: SPR Biacore T200; antibody captured by anti-human Fc; tau as analyte; global 1:1 fit
Exercise: for every item that follows, state its recorded Kd.
Record the value in nM, omitting the unit from your answer.

Quote Kd reported for hu9F5VHv10/hu9F5VLv9_DIM13 (antibody, V domains shown) VH: EVQLVQSGAEVKKPGATVKISCKASGFNIKDDYMNWVKQRPEKGLEWIGWIDPENGDTEYASKFQGRATMTADTSTNTAYMELSSLRSEDTAVYYCTTSNGWGQGTLVTVSS VL: DIQMTQSPFSLPVTPGESASISCRSSKSLGHSNGITYLYWYGQKPGQSPQLLIYQGSNRASGVPDRFSSSGSGTDFTLKISRVEAEDVGVYYCAQNLELPLTFGQGTKLEIK please.
0.508

Please indicate Kd recorded for hu9F5VHv10/hu9F5VLv9_DIM2 (antibody, V domains shown) VH: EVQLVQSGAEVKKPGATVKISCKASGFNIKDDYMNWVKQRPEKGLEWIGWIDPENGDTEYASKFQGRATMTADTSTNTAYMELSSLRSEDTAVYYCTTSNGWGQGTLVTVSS VL: DIQMTQSPFSLPVTPGESASISCRSSKSLSHSNGITYLYWYQQKPGQSPQLLIYQGSNRASGVPDRFSSSGSGTDFTLKISRVEAEDVGVYYCAQNIELPLTFGQGTKLEIK
0.679

Let me know recorded Kd for hu9F5VHv9/hu9F5VLv8_DIM26 (antibody, V domains shown) VH: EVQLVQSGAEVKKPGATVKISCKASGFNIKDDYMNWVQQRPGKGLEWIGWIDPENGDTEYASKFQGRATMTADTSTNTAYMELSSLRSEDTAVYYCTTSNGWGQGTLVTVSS VL: DIQMTQSPFSLPVTPGESASISCRSSKSLIHSNGITYLYWYIQKPGQSPQLLIYQESNRASGVPNRFSSSGSGTDFTLKISRVEAEDVGVYYCAQNLELPLTFGQGTKLEIK , thanks.
1.04
